Assay: BSK_BE3C_SRB: Viability Assessment in the BioMAP Diversity Plus: BE3C Assay (AID 2283028);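 also: measured 24 h after chemical dosing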;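 as to AC50: fitted both ways so AC50 may mark signal gain or loss versus DMSO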
Details: primary human bronchial epithelial cells
Activity calls are given as the source filed them. The calls were made as follows: active = hit-call score of the fitted dose curve at least 0.9, where 1 is the maximum; inactive = score below 0.9.
reportedEndpoint: AC50

compound=COCCOc1cc2cc(C(=O)NC3CCN(C(C)C)CC3)n(CC(=O)Nc3ccc(Cl)cn3)c2cn1 result=inactive
compound=CCCCCCCCCCCCCCCO result=inactive
compound=On1ccccc1=S result="9.28 µM (active)"
compound=CCc1cc(SCc2sc(-c3ccc(C(F)(F)F)cc3)nc2CN2CCN(c3ccc(OC)cc3)CC2)ccc1OCC(=O)O result="5.19 µM (active)"
compound="O=C(O)CC(O)C(=O)O (configuration not stated)" result=inactive
compound=COc1ccc(/C=C/S(=O)(=O)NC(=O)c2ccc(C)cc2Cl)cc1 result=inactive
compound=CC(C)=CCC/C(C)=C/CO result=inactive
compound="O=C1CCC(N2C(=O)c3ccccc3C2=O)C(=O)N1 (configuration not stated)" result=inactive
compound=CC1(C)C(=O)N(Br)C(=O)N1Br result=inactive
compound=Clc1nc(Cl)c(Cl)c(Cl)c1Cl result=inactive
compound=O=C(O)c1cccc(Oc2ccccc2)c1 result=inactive
compound=CC(C)CCCCCCOC(=O)c1ccc(C(=O)OCCCCCCC(C)C)c(C(=O)OCCCCCCC(C)C)c1 result=inactive

---

Read-out: Macrophage colony-stimulating factor (MCSF), CSF1 (gene 1435)
Test: BSK_hDFCGF_MCSF: BioMAP Diversity Plus: hDFCGF Assay for Macrophage colony-stimulating factor (MCSF) Biomarker Activity (AID 2283060)
Settings: primary human foreskin fibroblasts; actives raise or lower the signal
Active and inactive are the calls of the source. The calls were made as follows: active = hit-call score of the fitted dose curve at least 0.9, where 1 is the maximum; inactive = score below 0.9.
reportedEndpoint: AC50

compound="CNS(=O)(=O)c1cc(C(=O)N2CCC(CCN3C4CCC3CC(n3c(C)nc5ccccc53)C4)(c3cccc(F)c3)CC2)c(Cl)cc1F (stereo unspecified)" reportedendpoint=AC50 result=inactive
compound=COc1ccc2sc(C(=O)Nc3nnn[nH]3)c(OC(C)C)c2c1 reportedendpoint=AC50 result="11.4 µM (active)"
compound="O=C(O)CC(O)C(=O)O (stereo unspecified)" reportedendpoint=AC50 result=inactive
compound=O=C(O)c1cccc(Oc2ccccc2)c1 reportedendpoint=AC50 result=inactive
compound=CCCCCCCCO reportedendpoint=AC50 result=inactive
compound="CCCCC(CC)COC(=O)CCCCCCCCC(=O)OCC(CC)CCCC (stereo unspecified)" reportedendpoint=AC50 result=inactive

---

Read-out: Pselectin, SELP (gene 6403)
Assay: BSK_4H_Pselectin: BioMAP Diversity Plus: 4H Assay for Pselectin Biomarker Activity (AID 2283026)
Conditions: primary human endothelial cells (HUVEC); actives raise or lower the signal
Activity calls are given as the source filed them. The calls were made as follows: active = hit-call score of the fitted dose curve at least 0.9, where 1 is the maximum; inactive = score below 0.9.
Outcomes: label 1 = active, label 0 = inactive

compound=COC(=O)c1ccccc1O qualitativelabel="label 0"
compound=C1N2CN3CN1CN(C2)C3 qualitativelabel="label 0"
compound=Cn1c(=O)cc(Oc2ccc(F)cc2F)c2cnc(NCC(C)(C)O)nc21 qualitativelabel="label 0"
compound="CCOC(=O)COc1ccc2c(c1)CC(NCC(O)c1cccc(Cl)c1)CC2 (stereo not drawn)" qualitativelabel="label 1"
compound=CN(C)c1ccc(N=NS(=O)(=O)O)cc1 qualitativelabel="label 0"
compound=C1=CCCC=CCCC=CCC1 qualitativelabel="label 0"
compound=Cn1c(=O)c2c(ncn2C)n(C)c1=O qualitativelabel="label 0"
compound=CCn1nc(Cc2ccccc2)cc1C1CCN(C[C@H]2C[C@H](N(C)[C@@H](C(=O)O)C(C)C)C[C@@H]2c2cccc(F)c2)CC1 qualitativelabel="label 0"
compound=Nc1nc2ncc(CNc3ccc(C(=O)N[C@@H](CCC(=O)O)C(=O)O)cc3)nc2c(=O)[nH]1 qualitativelabel="label 0"
compound=CCOCCOCCOCCO qualitativelabel="label 0"
compound="O=C1CCC(N2C(=O)c3ccccc3C2=O)C(=O)N1 (stereo not drawn)" qualitativelabel="label 0"
compound=CC1(C)C(=O)N(Br)C(=O)N1Br qualitativelabel="label 0"
compound=CC[C@H](C)C(=O)O[C@H]1C[C@@H](C)C=C2C=C[C@H](C)[C@H](CC[C@@H]3C[C@@H](O)CC(=O)O3)[C@H]21 qualitativelabel="label 1"
compound=COCCOCCOCCOC qualitativelabel="label 0"
compound=CC(=O)OC[C@H]1O[C@@](COC(C)=O)(O[C@H]2O[C@H](COC(C)=O)[C@@H](OC(C)=O)[C@H](OC(C)=O)[C@H]2OC(C)=O)[C@@H](OC(C)=O)[C@@H]1OC(C)=O qualitativelabel="label 0"
compound="O=C1OC(=O)C2C3C=CC(C3)C12 (stereo not drawn)" qualitativelabel="label 0"
compound=C=CCCCCCCCCC(=O)O qualitativelabel="label 0"
compound=COC(=O)CC(=O)OC qualitativelabel="label 0"
compound=CCOC(=O)CC(CC(=O)OCC)(OC(C)=O)C(=O)OCC qualitativelabel="label 0"
compound=CCCCCCc1ccc(O)cc1O qualitativelabel="label 1"
compound=CC(=O)c1ccc2c(c1)[C@H](NC(=O)c1ccc(F)cc1)[C@@H](O)C(C)(C)O2 qualitativelabel="label 0"
compound=COc1ccc2sc(C(=O)Nc3nnn[nH]3)c(OC(C)C)c2c1 qualitativelabel="label 1"
compound="CNS(=O)(=O)c1cc(C(=O)N2CCC(CCN3C4CCC3CC(n3c(C)nc5ccccc53)C4)(c3cccc(F)c3)CC2)c(Cl)cc1F (stereo not drawn)" qualitativelabel="label 1"

---

Experiment: CCTE_Shafer_MEA_dev_bursting_electrodes_number: CCTE's Neural Network Formation Assay for Number of Bursting Electrodes, Shafer Lab (AID 2284043)
Records with an inconclusive call do not appear. Calls of active or inactive are those of the source. How the source made its calls: active means hit-call score of the fitted dose curve at least 0.9, where 1 is the maximum; inconclusive means response in the unintended direction; inactive means score below 0.9.
Outcomes: Y (active), N (inactive)

compound=O=P(OC(CCl)CCl)(OC(CCl)CCl)OC(CCl)CCl qualitativelabel=N
compound="O=C1CCC(N2C(=O)c3ccccc3C2=O)C(=O)N1 (centres undefined)" qualitativelabel=N
compound=CC[C@H]1OC(=O)[C@H](C)[C@@H](O[C@H]2C[C@@](C)(OC)[C@@H](O)[C@H](C)O2)[C@H](C)[C@@H](O[C@@H]2O[C@H](C)C[C@H](N(C)C)[C@H]2O)[C@](C)(O)C[C@@H](C)C(=O)[C@H](C)[C@@H](O)[C@]1(C)O qualitativelabel=N
compound=CC[C@H](C)C(=O)O[C@H]1C[C@@H](C)C=C2C=C[C@H](C)[C@H](CC[C@@H]3C[C@@H](O)CC(=O)O3)[C@H]21 qualitativelabel=Y

---

Experiment: ATG_NFI_CIS: Attagene CIS-FACTORIAL HepG2 Assay for human Nuclear Factor I (NFI) (AID 2282989)
Settings: HepG2 cis-regulatory reporter, NFI response element transcription; actives raise or lower the signal
Active and inactive are the calls of the source. The calls were made as follows: active = hit-call score of the fitted dose curve at least 0.9, where 1 is the maximum; inactive = score below 0.9.
Classes used: active, inactive

molecularstring=Cn1cnc([N+](=O)[O-])c1Sc1ncnc2nc[nH]c12 qualitativelabel=inactive
molecularstring=CC(C)CCCCCCOC(=O)c1ccc(C(=O)OCCCCCCC(C)C)c(C(=O)OCCCCCCC(C)C)c1 qualitativelabel=inactive
molecularstring=Cn1c(=O)cc(Oc2ccc(F)cc2F)c2cnc(NCC(C)(C)O)nc21 qualitativelabel=active
molecularstring=O=C(NS(=O)(=O)/C=C/c1ccccc1)c1ccc(F)cc1Cl qualitativelabel=inactive
molecularstring=C=CC(=C)CCC=C(C)C qualitativelabel=inactive
molecularstring=CCCN(C1CCN(C(=O)C2CCNCC2)CC1)[C@@H]1CCc2ccc(OC)cc2C1 qualitativelabel=inactive

---

Test: CCTE_Simmons_MITO_max_resp_rate: CCTE's HepG2 Seahorse XF Respirometric Screening Assay at Maximal Respiratory State [uncoupled], Simmons Lab (AID 2284002)
Details: actives raise or lower the signal
Protocol: CCTE_Simmons_MITO is cell-based, respirometric assay using HepG2 cells and a Seahorse XF Analyzer to measure oxygen consumption rates over four temporal phases spanning a total of 72 minutes: pre-injection (pre-treatment), basal (following test compound injection), maximal (following FCCP uncoupler injection), and inhibited (following rotenone/antimycin A injection)CCTE_Simmons_MITO_max_resp_rate is one of 4 assay components calculated from the CCTE_Simmons_MITO assay. […]
The source made the active and inactive calls. The calls were made as follows: active = hit-call score of the fitted dose curve at least 0.9, where 1 is the maximum; inactive = score below 0.9.
Outcome codes: active, inactive

molecule=CC(C)=CCCC(C)=CC=O qualitativelabel=inactive
molecule=CCCCCCc1ccc(O)cc1O qualitativelabel=active
molecule="Fc1ccccc1[C@@H](F)COC1CCC(Nc2ncnc3[nH]ncc23)CC1 (stereo partly specified)" qualitativelabel=active
molecule=CCOc1cccc(-n2cc(C(=O)N3CCN(c4cc(C(=O)O)c5ccccc5c4)CC3)nc2-c2ccc(C)cc2)c1 qualitativelabel=inactive
molecule="CCOC(=O)COc1ccc2c(c1)CC(NCC(O)c1cccc(Cl)c1)CC2 (stereo unspecified)" qualitativelabel=active
molecule="O=c1[nH]c2ccc(S(=O)CCN3CCC(Cc4ccc(F)cc4)CC3)cc2o1 (stereo unspecified)" qualitativelabel=active

---

Molecular target: human CYP1A2, CYP1A2 (gene 1544) (UniProt P05177)
Sequence (P05177 whole entry, looked up): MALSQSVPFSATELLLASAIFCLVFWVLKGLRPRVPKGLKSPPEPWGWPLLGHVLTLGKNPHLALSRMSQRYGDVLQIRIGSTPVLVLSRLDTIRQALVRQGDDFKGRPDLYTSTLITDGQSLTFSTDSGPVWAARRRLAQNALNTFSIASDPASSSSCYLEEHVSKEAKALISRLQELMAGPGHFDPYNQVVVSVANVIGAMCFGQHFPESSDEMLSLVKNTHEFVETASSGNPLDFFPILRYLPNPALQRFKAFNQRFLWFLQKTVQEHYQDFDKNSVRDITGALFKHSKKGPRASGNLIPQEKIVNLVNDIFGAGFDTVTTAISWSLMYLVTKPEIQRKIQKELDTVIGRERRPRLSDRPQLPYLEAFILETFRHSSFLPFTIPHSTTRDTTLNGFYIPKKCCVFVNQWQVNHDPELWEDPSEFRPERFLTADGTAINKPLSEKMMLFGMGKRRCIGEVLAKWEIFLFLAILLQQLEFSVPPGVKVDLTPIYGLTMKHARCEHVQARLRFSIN
Assay: NVS_ADME_hCYP1A2: NovaScreen (NVS) CYP450-related Enzyme Activity (ADME) Assay for human CYP1A2 (AID 2283102);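 also: fluorescence from turnover of a fluorogenic substrate by recombinant insect-cell CYP1A2; potency for inhibition since loss of fluorescence marks reduced CYP1A2 activity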
Activity calls are given as the source filed them. The calls were made as follows: active = hit-call score of the fitted dose curve at least 0.9, where 1 is the maximum; inconclusive = response in the unintended direction; inactive = score below 0.9.
AC50 values, listed per item
reportedEndpoint: AC50

molecularstring=Oc1ccc2c(c1)-c1ccccc1C2 result="0.691 µM (active)"
molecularstring=COC(=O)c1c(Cl)c(Cl)c(C(=O)OC)c(Cl)c1Cl result="8.47 µM (active)"
molecularstring=Nc1ccc(Nc2ccccc2)cc1 result="15.1 µM (active)"
molecularstring=Cc1[nH]cnc1C[C@H]1CCc2c(C)c3ccccc3n2C1=O result="1.78 µM (active)"
molecularstring=O=C(OC[C@H]1O[C@@H](OC(=O)c2cc(O)c(O)c(OC(=O)c3cc(O)c(O)c(O)c3)c2)[C@H](OC(=O)c2cc(O)c(O)c(OC(=O)c3cc(O)c(O)c(O)c3)c2)[C@@H](OC(=O)c2cc(O)c(O)c(OC(=O)c3cc(O)c(O)c(O)c3)c2)[C@@H]1OC(=O)c1cc(O)c(O)c(OC(=O)c2cc(O)c(O)c(O)c2)c1)c1cc(O)c(O)c(OC(=O)c2cc(O)c(O)c(O)c2)c1 result="2.01 µM (active)"
